ASSAYED SYSTEM: Proteasome subunit beta type-8 (Homo sapiens)
Sequence (P28062 whole entry): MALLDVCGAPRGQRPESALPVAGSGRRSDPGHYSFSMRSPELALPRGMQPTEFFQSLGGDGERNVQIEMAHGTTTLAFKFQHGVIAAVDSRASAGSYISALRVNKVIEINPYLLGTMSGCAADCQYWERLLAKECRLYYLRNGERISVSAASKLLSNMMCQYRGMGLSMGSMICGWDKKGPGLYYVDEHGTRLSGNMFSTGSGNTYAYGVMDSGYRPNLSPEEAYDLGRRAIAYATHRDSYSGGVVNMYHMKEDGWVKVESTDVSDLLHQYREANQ
EXPERIMENT DESCRIPTION: Inhibition of human 20S proteasome LMP7 using Ac-ANW-AMC as fluorogenic substrate measured every minute for 1 hr by fluorescence assay
pIC50: −log10 of the molar value.
ENDPOINT: pIC50

Example entries and their recorded answers appear below.
CC(C)C[C@H](NC(=O)[C@@H]1COCCCCCCCC(=O)N2CCC[C@H]2C(=O)N1)C(=O)[C@@]1(C)CO1 ... < 5.00
C[C@]1(C(=O)[C@H](CC2CCCCC2)NC(=O)[C@@H]2COCCCCCC(=O)N3CCC[C@H]3C(=O)N2)CO1 ... 5.24
CC(C)C[C@H](NC(=O)[C@@H]1COCCCCCC(=O)N2CC(F)(F)C[C@H]2C(=O)N1)C(=O)[C@@]1(C)CO1 ... < 5.00
CC(C)C[C@H](NC(=O)[C@@H]1COCCCCCC(=O)N2CCC[C@@]2(C)C(=O)N1)C(=O)[C@@]1(C)CO1 ... < 5.00

Fill in pIC50 for each of the 3 compounds listed.
1. CC(C)C[C@H](NC(=O)[C@@H]1COCCCCCCC(=O)NCC(=O)N2CCC[C@H]2C(=O)N1)C(=O)[C@@]1(C)CO1
2. CC(C)C[C@H](NC(=O)[C@@H]1Cc2ccc(cc2)OCCCCCCCC(=O)N2CCC[C@H]2C(=O)N1)C(=O)[C@@]1(C)CO1
3. C[C@]1(C(=O)[C@H](Cc2ccccc2)NC(=O)[C@@H]2COCCCCCC(=O)N3CCC[C@H]3C(=O)N2)CO1

Result block:
1. < 5.00
2. 5.82
3. < 5.00
